System: Ba/F3 cells expressing EGFR Del19/C797S (EGFR DC)
Assay: Proliferation inhibitory activity, Ba/F3 cells expressing EGFR Del19/C797S (CellTiter-Glo)
Type: cell-based
Conditions: Mus musculus, BaF3, 72 hours of compound treatment
result type: GI50

Example results:
- COc1cc(N2CCC(N3CCC(N(C)C)CC3)CC2)c(-c2cnn(C)c2)cc1Nc1cc(N2OCC[C@@H]2c2cc(F)cc(F)c2)ncn1: 50 to 500 nM
- COc1cc(N2CCC(N3CCN(C)CC3)C(F)C2)ccc1Nc1cc(N2OCC[C@@H]2c2cccc(F)c2F)ncn1 (some centres unmarked): < 50 nM
- CCc1cc(Nc2cc(N3OCC[C@@H]3c3cc(F)ccc3F)ncn2)c(OC)cc1N1CCC(N2CCN(C)CC2)CC1: < 50 nM
- CN1CCC(n2cc(-c3ccc(Nc4cc(N5OCC[C@@H]5c5cc(F)cc(F)c5)ncn4)c4c3CCO4)cn2)CC1: 50 to 500 nM
- COc1cc(N2CC(N3CCN(C)CC3)C2)ccc1Nc1cc(N2OCC[C@@H]2c2cccc(F)c2F)ncn1: < 50 nM

`COc1cc(N2CCC(N3CCN(C)CC3)CC2)c(Cl)cc1Nc1cc(N2OCC[C@@H]2c2ccccc2)ncn1` yielded GI50 of < 50 nM

Memo: `CCc1cc(Nc2cc(N3OCC[C@@H]3c3ccccc3)ncn2)ccc1N1CCC(N2CCN(C)CC2)CC1` , reported GI50: < 50 nM

// `Fc1cc(F)cc([C@H]2CCON2c2cc(Nc3ccc(C4CCNCC4)c4c3OCC4)ncn2)c1` : GI50 value = < 50 nM

The recorded GI50 for `COc1cc(Nc2cc(N3OCC[C@@H]3c3ccccc3)ncn2)ccc1N1CCC(N2CCN(C)CC2)CC1` is < 50 nM
